test: BET inhibitor-based combinations targeting novel dependencies in MECOM-rearranged (r) AML: UCSD-AML1 cell line (AID 2202235); settings: UCSD-AML1 AML cells viability, CellTiter-Glo, 48 h; series mostly up to 46 µM; note: nearly all actives have a fitted effect of over 40% in size
Inconclusive results are not listed. Calls of active or inactive are those of the source. Calls come from the whole dose curve; as a rule, active = well fitted inhibition curve with a large enough effect; inconclusive = small, poorly fitted or top-dose-only effect; inactive = no such curve, though single readings can be large or run the other way.
Possible outcomes: TRUE = active, FALSE = inactive

[
  {
    "COMPOUND": "NCCCC(N)(C(=O)O)C(F)F (centres undefined)",
    "QUALITATIVE_LABEL": "FALSE"
  },
  {
    "COMPOUND": "COC(=O)c1ccc2c(C(=Nc3ccc(N(C)C(=O)CN4CCN(C)CC4)cc3)c3ccccc3)c(O)[nH]c2c1",
    "QUALITATIVE_LABEL": "TRUE"
  },
  {
    "COMPOUND": "CC(C)N(C[C@H]1O[C@@H](n2cnc3c(N)ncnc32)[C@H](O)[C@@H]1O)C1CC(CCc2nc3ccc(C(C)(C)C)cc3[nH]2)C1 (some centres undefined)",
    "QUALITATIVE_LABEL": "FALSE"
  },
  {
    "COMPOUND": "Cc1cc2c(C(C)C)c(O)c(O)c(C=O)c2c(O)c1-c1c(C)cc2c(C(C)C)c(O)c(O)c(C=O)c2c1O",
    "QUALITATIVE_LABEL": "TRUE"
  },
  {
    "COMPOUND": "O=C1[C@H](Cc2ccc(O)cc2)N2C(=O)CCN(C(=O)NCc3ccccc3)[C@H]2CN1Cc1cccc2ccccc12",
    "QUALITATIVE_LABEL": "TRUE"
  },
  {
    "COMPOUND": "O=C1CCCC(=O)C1C(=O)c1ccc(C(F)(F)F)cc1[N+](=O)[O-]",
    "QUALITATIVE_LABEL": "FALSE"
  },
  {
    "COMPOUND": "N[C@H](CSC(c1ccccc1)(c1ccccc1)c1ccccc1)C(=O)O",
    "QUALITATIVE_LABEL": "FALSE"
  },
  {
    "COMPOUND": "O=c1c(O)c(-c2ccc(O)c(O)c2)oc2cc(O)cc(O)c12",
    "QUALITATIVE_LABEL": "FALSE"
  },
  {
    "COMPOUND": "COC(=O)C[C@](O)(CCCC(C)(C)O)C(=O)O[C@@H]1C(OC)=C[C@]23CCCN2CCc2cc4c(cc2[C@H]13)OCO4",
    "QUALITATIVE_LABEL": "TRUE"
  }
]

###

experiment: BET inhibitor-based combinations targeting novel dependencies in MECOM-rearranged (r) AML: UCSD-AML1 cell line (AID 2202235); settings: UCSD-AML1 AML cells viability, CellTiter-Glo, 48 h; series mostly up to 46 µM; note: nearly all actives have a fitted effect of over 40% in size
Results filed as inconclusive are left out. Activity calls are given as the source filed them. Calls come from the whole dose curve; as a rule, active = well fitted inhibition curve with a large enough effect; inconclusive = small, poorly fitted or top-dose-only effect; inactive = no such curve, though single readings can be large or run the other way.
Possible outcomes: active, inactive

[
  {
    "MOLECULE": "Nc1nc2ccc(OC(F)(F)F)cc2s1",
    "QUALITATIVE_LABEL": "active"
  },
  {
    "MOLECULE": "CC#CCn1c(N2CCC[C@@H](N)C2)nc2c1c(=O)n(Cc1nc(C)c3ccccc3n1)c(=O)n2C",
    "QUALITATIVE_LABEL": "inactive"
  },
  {
    "MOLECULE": "CS(=O)(=O)Oc1ccc2c(NC(N)=O)c(C(=O)c3ccc(Cl)cc3Cl)oc2c1",
    "QUALITATIVE_LABEL": "inactive"
  },
  {
    "MOLECULE": "CC(N[C@H]1CCCC[C@H]1NC(=O)c1ccc(Cl)cc1)c1cccc2ccccc12 (stereo not given in full)",
    "QUALITATIVE_LABEL": "active"
  },
  {
    "MOLECULE": "O=[N+]([O-])c1ccc(Nc2ccccc2-c2ccccc2)c2nonc12",
    "QUALITATIVE_LABEL": "inactive"
  },
  {
    "MOLECULE": "O=C(O)[C@H](CC(=O)N1C[C@H]2CCCC[C@H]2C1)Cc1ccccc1",
    "QUALITATIVE_LABEL": "inactive"
  },
  {
    "MOLECULE": "CC(C)(CO)[C@@H](O)C(=O)NCCC(=O)O",
    "QUALITATIVE_LABEL": "inactive"
  },
  {
    "MOLECULE": "CCCCn1c(=O)n(Cc2ccccc2F)c(=O)c2[nH]c(Cc3ccc(NC(C)=O)cc3)nc21",
    "QUALITATIVE_LABEL": "inactive"
  },
  {
    "MOLECULE": "O=C(O)c1ccc2c(c1)nc(Nc1cccc(Cl)c1)c1ccncc12",
    "QUALITATIVE_LABEL": "active"
  },
  {
    "MOLECULE": "NC(=O)c1ccc2nc(-c3ccc(Oc4ccc(Cl)cc4)cc3)[nH]c2c1",
    "QUALITATIVE_LABEL": "inactive"
  }
]

The origin of these recorded values is PubChem BioAssay (NCATS).
